B1: TCAP (parent)
chain: YQRVLPLPIFTPAKMGATKEERED

# Variants of: B1
# test: protein stability index of a GFP-peptide fusion (GPS, HEK-293T) (PSI 1-6); higher = more stable;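 further: lentivirally expressed fusions sorted by FACS into six bins by GFP to DsRed ratio, PSI derived from sequencing read proportions per bin multiplied by bin number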
# condition.label: c terminus: a fixed tail appended
Parameter threshold = 2. Response is Criterion met when protein stability index meets or exceeds it, else Criterion not met.

Example entries and their recorded answers appear below.
| mut | group |
| --- | --- |
| Y1L | Criterion met |
| Q2Y | Criterion met |
| M15E | Criterion met |
| Q2N | Criterion met |

Let us examine a further case.
(Q) Is it the case that Y1Q has protein stability index reaching or exceeding 2?
(A) Criterion met
